Recorded values, source ChEMBL document CHEMBL1122652.

tested on: Calf thymus DNA; test: Change in thermal denaturation temperature of calf thymus DNA; format: nucleic-acid assay; settings: Bos taurus
measurement-name: ΔTm (°C)
Respond with the bare value in °C.

In the examples that follow, each entry is paired with its recorded ΔTm.
compound: COc1cccc2c1C(=O)c1c(O)c3c(c(O)c1C2=O)C[C@@](O)(C(C)=O)CC3OC1CC(N2CCOCC2C#N)C(O)C(C)O1 (stereo not given in full)
ΔTm (°C): 6.3
//
compound: COc1cccc2c1C(=O)c1c(O)c3c(c(O)c1C2=O)C[C@@](O)(C(O)CO)CC3OC1CC(N2CCOCC2C#N)C(O)C(C)O1 (stereo not given in full)
ΔTm (°C): 4.5
//
compound: COc1cccc2c1C(=O)c1c(O)c3c(c(O)c1C2=O)C[C@@](O)(C(C)O)CC3OC1CC(N2CCOCC2C#N)C(O)C(C)O1 (stereo not given in full)
ΔTm (°C): 4.2
//
compound: COc1cccc2c1C(=O)c1c(O)c3c(c(O)c1C2=O)C[C@@](O)(C(=O)CO)C[C@@H]3O[C@H]1C[C@H](N)[C@H](O)[C@H](C)O1.Cl [DOXORUBICIN HYDROCHLORIDE]
ΔTm (°C): 12.8

The recorded ΔTm for entry COc1cccc2c1C(=N)c1c(O)c3c(c(O)c1C2=O)C[C@@](O)(C(=O)CO)CC3OC1CC(N2CCOCC2)C(O)C(C)O1.Cl (stereo not given in full) equals 4.3
